Would you mind telling me the reported activity change, negative = thiol reactive of each entry?
ASSAY_PROTOCOL: Primary fluorescence-based thiol-reactive (MSTI) qHTS assay for identification of artifact compounds. (AID 1845221);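 further: thiol-reactive compounds lower the probe fluorescence signal; nearly all actives have a fitted effect of over 65% in size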
CONDITIONS_USED: MSTI thiol-reactivity probe, 1 h; series mostly up to 53.8 µM
Inconclusive results are not listed. Activity calls are given as the source filed them. The call rests on the fitted dose curve; in most records, active means well fitted inhibition curve with a large enough effect; inconclusive means small, poorly fitted or top-dose-only effect; inactive means no such curve, though single readings can be large or run the other way.

Consider the worked cases shown below.
[[record]]
molecule = "C/C=C(/C)C(=O)OC1C(OC(C)=O)C23C(O)OC4(CCC5C6(C)CCC(OC7OC(C(=O)O)C(O)C(OC8OC(CO)C(O)C(O)C8OC8OC(C)C(O)C(O)C8OC8OCC(O)C(O)C8O)C7OC7OC(CO)C(O)C(O)C7O)C(C)(C)C6CCC5(C)C4(C)CC2OC(C)=O)C3CC1(C)C (stereo unspecified)"
value_measured = "196% [at 11.5 µM] (inactive)"

[[record]]
molecule = "CC1(C)CC[C@]2(C(=O)O[C@@H]3O[C@H](CO)[C@@H](O)[C@H](O)[C@H]3O)CC[C@]3(C)C(=CCC4[C@@]5(C)CC[C@H](O[C@@H]6O[C@H](C(=O)O)[C@@H](O[C@@H]7O[C@H](CO)[C@@H](O)[C@H](O)[C@H]7O)[C@H](O)[C@H]6O)C(C)(C)C5CC[C@]43C)C2C1 (stereo partly specified)"
value_measured = "348% [at 11.5 µM] (inactive)"

[[record]]
molecule = "CC1(C)CC[C@]2(C(=O)O[C@@H]3O[C@H](CO)[C@@H](O)[C@H](O)[C@H]3O)CC[C@]3(C)C(=CCC4[C@@]5(C)CC[C@H](O[C@H]6O[C@H](CO)[C@@H](O)[C@H](O[C@@H]7O[C@H](CO)[C@@H](O)[C@H](O)[C@H]7O)[C@H]6O)C(C)(C)C5CC[C@]43C)[C@@H]2C1 (stereo partly specified)"
value_measured = "168% [at 11.5 µM] (inactive)"

[[record]]
molecule = "C[C@@H]1O[C@@H](O[C@@H]2[C@@H](O)[C@H](O[C@H]3[C@H](O[C@H]4CC[C@@]5(C)C(CC[C@]6(C)C5CC=C5[C@@H]7CC(C)(C)CC[C@]7(C(=O)O[C@@H]7O[C@H](CO)[C@@H](O)[C@H](O)[C@H]7O)CC[C@]56C)C4(C)C)O[C@H](C(=O)O)[C@@H](O)[C@@H]3O)OC[C@H]2O)[C@H](O)[C@H](O)[C@H]1O (stereo partly specified)"
value_measured = "351% [at 11.5 µM] (inactive)"


The following molecules each have a reported value; give each one's activity change, negative = thiol reactive.
1. CC(C)=CCC[C@](C)(O[C@@H]1O[C@H](CO)[C@@H](O)[C@H](O)[C@H]1O)[C@H]1CC[C@]2(C)[C@@H]1[C@H](O)CC1[C@@]3(C)CC[C@H](O)C(C)(C)C3[C@@H](O[C@@H]3O[C@H](CO)[C@@H](O)[C@H](O)[C@H]3O[C@@H]3O[C@@H](C)[C@H](O)[C@@H](O)[C@H]3O)C[C@]12C (stereo partly specified)
2. CC(=O)OCC1OC(O[C@H]2CC[C@]34C[C@]35CC(O)[C@]3(C)[C@@H]([C@H](C)CC/C=C(\C)C(=O)O)C(O)C[C@@]3(C)C5CC[C@H]4C2(C)C)C(O)C(O)C1OC1OCC(O)C(O)C1O (stereo partly specified)

Outgoing:
["209% [at 11.5 µM] (inactive)", "154% [at 11.5 µM] (inactive)"]
